Recorded values, source ChEMBL document CHEMBL1961873.

# MEASURED ON: Ephrin type-B receptor 2 (Homo sapiens) (UniProt P29323)
# Sequence (whole entry): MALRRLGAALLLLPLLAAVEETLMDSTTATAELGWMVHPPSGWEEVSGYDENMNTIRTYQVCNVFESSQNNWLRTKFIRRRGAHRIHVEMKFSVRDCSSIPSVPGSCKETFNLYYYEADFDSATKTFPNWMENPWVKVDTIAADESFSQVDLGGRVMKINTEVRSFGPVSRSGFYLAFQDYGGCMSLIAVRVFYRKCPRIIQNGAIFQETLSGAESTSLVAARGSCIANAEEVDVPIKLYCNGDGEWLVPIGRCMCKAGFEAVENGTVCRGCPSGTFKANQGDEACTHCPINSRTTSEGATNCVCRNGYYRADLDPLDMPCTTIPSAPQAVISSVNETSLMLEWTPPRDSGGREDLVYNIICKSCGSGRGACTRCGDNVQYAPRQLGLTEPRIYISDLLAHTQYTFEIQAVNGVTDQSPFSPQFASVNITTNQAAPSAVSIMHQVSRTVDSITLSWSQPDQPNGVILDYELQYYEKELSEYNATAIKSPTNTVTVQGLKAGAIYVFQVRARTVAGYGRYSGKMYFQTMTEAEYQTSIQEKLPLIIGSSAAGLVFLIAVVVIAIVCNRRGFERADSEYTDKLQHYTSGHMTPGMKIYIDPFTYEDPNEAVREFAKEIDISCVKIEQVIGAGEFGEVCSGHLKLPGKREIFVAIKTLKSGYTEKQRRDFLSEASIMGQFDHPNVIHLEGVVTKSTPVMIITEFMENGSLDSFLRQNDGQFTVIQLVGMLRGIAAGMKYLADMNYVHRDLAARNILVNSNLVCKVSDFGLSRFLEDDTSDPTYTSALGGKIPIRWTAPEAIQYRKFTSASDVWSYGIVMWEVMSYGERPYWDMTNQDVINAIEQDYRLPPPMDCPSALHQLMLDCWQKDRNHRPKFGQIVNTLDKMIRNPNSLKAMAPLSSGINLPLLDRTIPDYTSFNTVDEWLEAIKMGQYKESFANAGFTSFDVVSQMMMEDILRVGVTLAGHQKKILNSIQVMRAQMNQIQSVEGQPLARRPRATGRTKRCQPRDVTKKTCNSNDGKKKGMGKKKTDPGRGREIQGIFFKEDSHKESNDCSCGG
# MEASUREMENT PARAMETERS: at 0.1 µM;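 note: reported as mean inhibition of EPHB2, from the GSK PKIS dataset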
OBSERVATION TYPE: inhibition (%)
Numeric answer only, unit % assumed.

State inhibition on Ephrin type-B receptor 2 (Homo sapiens) (UniProt P29323). Entry: "Fc1ccc(-c2ncn(C3CCNCC3)c2-c2ccnc(Oc3ccccc3)n2)cc1" 5.55

State inhibition on Ephrin type-B receptor 2 (Homo sapiens) (UniProt P29323). Entry: "CCn1c(-c2nonc2N)nc2c(C#CC(C)(C)O)nc(O[C@@H](CN)c3ccccc3)cc21" -2.94

State inhibition on Ephrin type-B receptor 2 (Homo sapiens) (UniProt P29323). Entry: "NS(=O)(=O)c1ccc(-c2ccc3c(NC(=O)C4CC4)n[nH]c3c2)cc1" 7.57

State inhibition on Ephrin type-B receptor 2 (Homo sapiens) (UniProt P29323). Entry: "CCn1c(-c2nonc2N)nc2c(C#CC(C)(C)O)ncc(OC[C@@H]3CCCN3)c21" -7.23

State inhibition on Ephrin type-B receptor 2 (Homo sapiens) (UniProt P29323). Entry: "COc1cccc(COc2cc(-n3cnc4ccccc43)sc2C(N)=O)c1" -2.9

State inhibition on Ephrin type-B receptor 2 (Homo sapiens) (UniProt P29323). Entry: "Nc1nonc1-c1nc2cnccc2n1C1CCCCC1" -7.08

State inhibition on Ephrin type-B receptor 2 (Homo sapiens) (UniProt P29323). Entry: "CCn1c(-c2nonc2N)nc2c(C#CCN)ncc(OCCCN)c21" -6

State inhibition on Ephrin type-B receptor 2 (Homo sapiens) (UniProt P29323). Entry: "NC(=O)c1sc(-n2cnc3cc(C(F)(F)F)ccc32)cc1OCc1ccccc1Br" -4.03

State inhibition on Ephrin type-B receptor 2 (Homo sapiens) (UniProt P29323). Entry: "COc1cc(C=NNc2ncnc3c2cnn3Cc2ccccc2)ccc1O" -3.14
